The values you see were collected from the supplement of paper PMC13380429.

Hi there, I'd appreciate the recorded cell viability for every entry that follows.
Tested on: Calu-3
protocol: cell viability relative to DMSO; higher = less toxic
applied-conditions: 72 h; 1 nM
Give bare numbers, in %.

Check out these entries, answers already filled in.
INSERT INTO results (molecule, measured_endpoint, experimental_value) VALUES
  ('OCc1ccc(O[C@@H]2O[C@H](CO)[C@@H](O)[C@H](O)[C@H]2O)cc1 [gastrodin]', 'cell viability', 108),
  ('CCOC(=O)Nc1ccc2c(c1)N(C(=O)CCN(CC)CC)c1ccccc1S2 [ethacizin]', 'cell viability', 98.3),
  ('CC(=O)Nc1cccc2c1c(Sc1ccc(Cl)cc1)c(C)n2CC(=O)O [AZD1981]', 'cell viability', 102),
  ('O=C1c2ccccc2C(=O)c2ccccc21 [anthraquinone]', 'cell viability', 94.9),
  ('COc1cc(O)c(C(=O)c2ccccc2)cc1S(=O)(=O)O [sulisobenzone]', 'cell viability', 100),
  ('COc1cc2c(cc1OC)[C@@H]1Cc3ccc(OC)c(OC)c3CN1CC2 [rotundine]', 'cell viability', 103),
  ('O=C(Nc1cc(C(F)(F)F)cc(C(F)(F)F)c1)Nc1c(Br)cc(Br)cc1-c1nnn[nH]1 [NS-5806]', 'cell viability', 94.2),
  ('Cc1n[nH]c2ccc(-c3cncc(OC[C@@H](N)Cc4ccccc4)c3)cc12', 'cell viability', 105);

Continue with the molecule presented below.
QUERY: Please state recorded cell viability (tested on Calu-3) of O=C(Oc1cc(S(=O)(=O)c2ccccc2)ccc1[N+](=O)[O-])c1ccc(Cl)cc1
RESULT: 101
